Experiment: Metabolic stability in human liver microsomes
Format: in vitro ADME
Conditions: both sexes, human, microsomes, pH 7.4
readoutType: microsomal CLint at 15 µg/mL

Prompt: # lookup: microsomal CLint at 15 µg/mL of CCCCCc1cc(O)c(C/C=C(\C)CCC=C(C)C)c(O)c1 [CBG, Cannabigerol, reference compound]
Response: 7.18 µL/min/mg

----------
System: reconstructed human oral buccal epithelium cells (SkinEthic HOE, TR146 cells)
Assay: In vitro buccal permeability (SkinEthic human oral epithelium)
Format: in vitro ADME
Details: Table 4; suspension ca. 2 mg/ml in 5% EtOH/phosphate buffer pH 6.8, 37° C.; receiver 15% HP-β-cyclodextrin
readoutType: Flux (buccal)

// below: answered molecules
{"sampleSmiles": "CCCCCc1cc(OC(=O)N2CCN(C)CC2)c(C/C=C(\\C)CCC=C(C)C)c(OC(=O)N2CCN(C)CC2)c1", "Flux (buccal)": "30.60 ± 2.02 (prodrug) nmol/cm^2/h"}
{"sampleSmiles": "CCCCCc1cc(O)c(C/C=C(\\C)CCC=C(C)C)c(OC(=O)N2CCNCC2)c1", "Flux (buccal)": "10.31 ± 0.54 (prodrug) nmol/cm^2/h"}

Consider the following items and state reported Flux (buccal) for each.
1. CCCCCc1cc(OC(=O)N2CCN(C)CC2)c2c(c1)OC(C)(C)[C@@H]1CCC(C)=C[C@@H]21
2. CCCCCc1cc(O)c(C/C=C(\C)CCC=C(C)C)c(OC(=O)N2CCN(C)CC2)c1

Response:
19.22 ± 0.29 (prodrug) nmol/cm^2/h
4.45 ± 0.45 (prodrug) nmol/cm^2/h

----------
Assign half-life at 15 µg/mL to each entry below.
Test: Metabolic stability in human liver microsomes
Type: in vitro ADME
Conditions: both sexes, human, microsomes, pH 7.4, Table 3; average of determinations; read-out: Half-life in human liver microsomes (avg.) (converted)
Description: The prodrugs were incubated with the human liver microsomes at 37° C. as an indication of the susceptibility of prodrugs to undergo bioconversion in the liver. […] After immediate mixing and centrifugation (5 min at 14.000 rpm), the resulting clear supernatant was analyzed for the remaining prodrug by HPLC.
Answers are plain numbers, in h.

{"sampleSmiles": "C=C(C)[C@@H]1CCC(C)=C[C@H]1c1c(O)cc(CCCCC)cc1O", "measuredNumber": 0.5}

# ---- query compound ----
Prompt: # lookup: half-life at 15 µg/mL of `C=C(C)[C@@H]1CCC(C)=C[C@H]1c1c(O)cc(CCCCC)cc1OC(=O)NCCN(C)C`
Response: 3.13

----------
Assign Flux (buccal) to each entry below.
Tested on: reconstructed human oral buccal epithelium cells (SkinEthic HOE, TR146 cells)
Assay: In vitro buccal permeability (SkinEthic human oral epithelium)
Format: in vitro ADME
Conditions: Table 4; suspension ca. 2 mg/ml in 5% EtOH/phosphate buffer pH 6.8, 37° C.; receiver 15% HP-β-cyclodextrin
Procedure: The in vitro permeability studies were carried out in commercial reconstructed human oral buccal epithelium cells (SkinEthic™ human oral epithelium). […] Upon receiving the cells, each insert (0.5 cm^2 or 0.33 cm^2) was placed in a plate containing 800 μL fresh medium at room temperature. […] The samples were mixed with 100 μL of MeOH, and analyzed for drug (both the parent cannabinoid and the prodrug) by HPLC-MS. […]

{"compound": "CCCCCc1cc(OC(=O)N2CCN(C)CC2)c2c(c1)OC(C)(CCC=C(C)C)C=C2 (stereo not drawn)", "Flux (buccal)": "15.88 ± 0.70 (prodrug) nmol/cm^2/h"}
{"compound": "CCCCCc1cc(OC(=O)N2CCNCC2)c2c(c1)OC(C)(C)[C@@H]1CCC(C)=C[C@@H]21", "Flux (buccal)": "31.30 ± 1.31 (prodrug) nmol/cm^2/h"}

# ---- query compound ----
Prompt: # lookup: Flux (buccal) of CCCCCc1cc(OC(=O)N2CCNCC2)c2c(c1)OC(C)(CCC=C(C)C)C=C2 (stereo not drawn)
Response: 5.74 ± 0.51 (prodrug) nmol/cm^2/h
